- protocol description: recombinant barcode read abundance after kanamycin selection (control-corrected) (log10(CPM+1)); higher = more efficient recombination; sequences stand for … in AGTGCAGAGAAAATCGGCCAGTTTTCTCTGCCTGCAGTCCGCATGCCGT…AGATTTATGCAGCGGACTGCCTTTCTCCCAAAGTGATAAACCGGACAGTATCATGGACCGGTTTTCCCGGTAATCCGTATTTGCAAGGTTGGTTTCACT; site = the 11-nt target
recombinant barcode read abundance (log10) by entry:
endpoint name: recombinant barcode read abundance (log10)

* GACTCTCCTTGGGTTCTAACCTGTTGCTG (site GACTCTCCTCT) | 0.0367
* CTAAGGGCTTGGGTTCTAACCTGTTGCGG (site CTTAGGGCTCC) | 0.303
* GTAATGTCTTGGGTTCTAACCTGTTGCCT (site GCAATGTCTAG) | 0.289
* TCGGGGACTTGGGTTCTAACCTGTTGCCG (site TCAGGGACTCT) | 0.183
* AGATTCCCTTGGGTTCTAACCTGTTGCCG (site AGATTCGCTCG) | 0.0429
* ATGTGAACTTGGGTTCTAACCTGTTGCTG (site ATGTGAACTCA) | 1.02
* GGAACGACTTGGGTTCTAACCTGTTGCGT (site CTCCGAGCTGT) | 0.0623
* CCGGATGCTTGGGTTCTAACCTGTTGCCT (site CCGTATGCTAG) | 0.0746
* GATCCCACTTGGGTTCTAACCTGTTGCCT (site GATCCCACTAG) | 1.34
* TCCTATGCTTGGGTTCTAACCTGTTGCCG (site TCCTATGCTCG) | 0.444

* * *

recombinant UMI read abundance (log10) by entry:
- protocol description: recombinant UMI read abundance after kanamycin selection (control-corrected) (log10(CPM+1)); higher = more efficient recombination; extreme values may be limits of the assay; sequences stand for … in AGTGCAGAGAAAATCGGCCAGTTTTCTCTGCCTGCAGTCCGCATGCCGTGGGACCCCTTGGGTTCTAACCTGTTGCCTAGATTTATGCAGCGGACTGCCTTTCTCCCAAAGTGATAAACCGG…AGGTTGGTTTCACT; site = the 11-nt donor
endpoint name: recombinant UMI read abundance (log10)

- CCCGACACATGGACCGGTTTTCCCGGTAATCCGTATTTGTA (site CCCCACACTTA): 0.00237
- GCATTGACATGGACCGGTTTTCCCGGTAATCCGTATTTGTT (site GCATTGACTAA): 1.4
- CAAGTCACATGGACCGGTTTTCCCGGTAATCCGTATTTGGG (site CAAGTCACTCA): 0.0308
- CGTTCCACATGGACCGGTTTTCCCGGTAATCCGTATTTGTG (site CGTTCCACTCA): 0.0103
- CGGGTTCCATGGACCGGTTTTCCCGGTAATCCGTATTTGAC (site CGGGTTCCTGT): 0.77
- ACCTAGACATGGACCGGTTTTCCCGGTAATCCGTATTTGGG (site ACCTAGACTCC): 0.0334
- TGGCGGACATGGACCGGTTTTCCCGGTAATCCGTATTTGCA (site TGGCGGACTTG): 1.67
- CTAATAACATGGACCGGTTTTCCCGGTAATCCGTATTTGGA (site CTAGTAACTTC): 0.0598
- GCGTATTCATGGACCGGTTTTCCCGGTAATCCGTATTTGTG (site GCGTATTCTCA): 2.49
- TCCACAGCATGGACCGGTTTTCCCGGTAATCCGTATTTGCG (site TCCACTGCTCG): 0.0252
- CCTCTTTCATGGACCGGTTTTCCCGGTAATCCGTATTTGAG (site CCTCTTTCTCT): 0.00323
- CCTAAAACATGGACCGGTTTTCCCGGTAATCCGTATTTGGC (site CCTAACACTGC): 0
- ACATGCGCATGGACCGGTTTTCCCGGTAATCCGTATTTGAT (site ACATGCGCTAT): 2.22
- GAAGATTCATGGACCGGTTTTCCCGGTAATCCGTATTTGTT (site GAAGATCCTAA): 1.92
- GGTGGTGCATGGACCGGTTTTCCCGGTAATCCGTATTTGAC (site GGTGGTGCTGT): 2.18
- ACTACTGCATGGACCGGTTTTCCCGGTAATCCGTATTTGGT (site ACTAGTGCTAC): 0.0166
- AGGACCCCATGGACCGGTTTTCCCGGTAATCCGTATTTGGT (site AGGACCCCTAC): 0.297
- TACTAGACATGGACCGGTTTTCCCGGTAATCCGTATTTGCT (site TACTCGACTAG): 0.00336

* * *

recombinant barcode read abundance (log10) by entry:
- protocol description: recombinant barcode read abundance after kanamycin selection (control-corrected) (log10(CPM+1)); higher = more efficient recombination; sequences stand for … in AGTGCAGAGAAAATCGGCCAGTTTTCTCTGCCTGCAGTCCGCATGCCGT…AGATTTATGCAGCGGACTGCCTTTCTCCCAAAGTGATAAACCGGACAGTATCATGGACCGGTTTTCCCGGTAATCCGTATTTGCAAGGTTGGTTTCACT; site = the 11-nt target
endpoint name: recombinant barcode read abundance (log10)

* ATTTGACCTTGGGTTCTAACCTGTTGCCG (site ATTTGACCTCG) | 0.67
* ACTGTATCTTGGGTTCTAACCTGTTGCCT (site ACTGTATCTAG) | 1.13
* CATTAGACTTGGGTTCTAACCTGTTGCCT (site GATTAGACTAG) | 0.195
* GACACGCCTTGGGTTCTAACCTGTTGCTT (site GACACGCCTAA) | 0.201
* CGGAAATCTTGGGTTCTAACCTGTTGCCT (site CGGAAATCTAG) | 0.127

* * *

- protocol description: recombinant barcode read abundance after kanamycin selection (control-corrected) (log10(CPM+1)); higher = more efficient recombination; sequences stand for … in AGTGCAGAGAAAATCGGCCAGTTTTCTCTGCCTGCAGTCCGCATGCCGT…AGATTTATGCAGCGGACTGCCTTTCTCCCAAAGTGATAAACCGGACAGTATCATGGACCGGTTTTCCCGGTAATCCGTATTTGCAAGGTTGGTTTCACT; site = the 11-nt target
Assign label 1 to entries whose recombinant barcode read abundance (log10) meets or exceeds 0.1; assign label 0 to the rest.

* GTTTGGACTTGGGTTCTAACCTGTTGCTG (site GTTTGGACTTA) | label 1
* TTCCTAGCTTGGGTTCTAACCTGTTGCCA (site TTCCTAGCTTG) | label 1
* CGTACTACTTGGGTTCTAACCTGTTGCAC (site CGTACTACTGT) | label 0
* CTGCTCCCTTGGGTTCTAACCTGTTGCGG (site CTGATCCCTCC) | label 1
* TGCCTCTCTTGGGTTCTAACCTGTTGCCT (site GGCTTCTCTAG) | label 0
* AGACGTCCTTGGGTTCTAACCTGTTGCGT (site ATACGTCCTAT) | label 1
* TCCGCTTCTTGGGTTCTAACCTGTTGCCT (site TCCGCTACTAG) | label 1
* CCGGTGCCTTGGGTTCTAACCTGTTGCCT (site CCGGTGCCTAG) | label 1
* AAAAGCCCTTGGGTTCTAACCTGTTGCCT (site ACAAGCCCTAG) | label 1
* CCGATTCCTTGGGTTCTAACCTGTTGCCT (site CCGATTCCTAG) | label 1
* GCGTTTGCTTGGGTTCTAACCTGTTGCCT (site GCGTTTGCTAG) | label 1
* AAGATTCCTTGGGTTCTAACCTGTTGCCT (site AGGATTCCTAG) | label 1
* CCTTCTACTTGGGTTCTAACCTGTTGCCT (site CCTTCTACTAG) | label 1
* GAGCGGACTTGGGTTCTAACCTGTTGCCT (site GAGCCGACTAG) | label 1
* TACCTGCCTTGGGTTCTAACCTGTTGCGT (site TACCTGCCTAC) | label 1
* TCCTCGTCTTGGGTTCTAACCTGTTGCCT (site GCCTGGTCTAG) | label 0
* CGATCACCTTGGGTTCTAACCTGTTGCCT (site CGATCACCTAG) | label 1
* TCTGGCACTTGGGTTCTAACCTGTTGCCT (site TCCAGCACTAG) | label 1
* CTGATCCCTTGGGTTCTAACCTGTTGCCT (site CTGATCCCTAG) | label 1
* ACCCTGGCTTGGGTTCTAACCTGTTGCCT (site ACGCTGGCTAG) | label 1
* TAGCGCACTTGGGTTCTAACCTGTTGCGG (site TAGCCCACTCC) | label 0
* TAACCTCCTTGGGTTCTAACCTGTTGCCT (site TAACCTGCTAG) | label 0
* CACCGTCCTTGGGTTCTAACCTGTTGCAT (site CACCGTCCTAT) | label 1
* CCTGGGACTTGGGTTCTAACCTGTTGCGA (site CCTGGGACTCC) | label 1
* AAAAGCCCTTGGGTTCTAACCTGTTGCCT (site AGAAGCCCTAG) | label 0
* AGCCTGGCTTGGGTTCTAACCTGTTGCCT (site AGCCTGTCTAG) | label 0
* GTTGGAACTTGGGTTCTAACCTGTTGCGT (site GTTGGAACTAC) | label 1
* TAACGACCTTGGGTTCTAACCTGTTGCCT (site CAACGACCTAG) | label 0
* CAATGGACTTGGGTTCTAACCTGTTGCCT (site CACTGGACTAG) | label 0
* TGGCATCCTTGGGTTCTAACCTGTTGCGT (site AACAGGGCTCG) | label 0
* CAGTGTCCTTGGGTTCTAACCTGTTGCCG (site GAGCGTCCTCG) | label 1
* CGGAATGCTTGGGTTCTAACCTGTTGCCT (site CGTAATGCTAG) | label 0
* ACTTCTACTTGGGTTCTAACCTGTTGCCG (site ACTTCTACTCG) | label 1
* TGGTTACCTTGGGTTCTAACCTGTTGCGG (site CACACGACTAA) | label 0
* ACTACTCCTTGGGTTCTAACCTGTTGCGA (site ACTAGTCCTTG) | label 1
* TGAGGTGCTTGGGTTCTAACCTGTTGCCT (site GGAGGGGCTAG) | label 1
* GAGCGAGCTTGGGTTCTAACCTGTTGCAT (site GAGCGAGCTAT) | label 1
* CCGTGCCCTTGGGTTCTAACCTGTTGCGT (site TCGTGCCCTAC) | label 0
* CAGAGTCCTTGGGTTCTAACCTGTTGCCT (site CAGAGTCCTAT) | label 1
* CTTCAAGCTTGGGTTCTAACCTGTTGCCT (site CTACAAGCTAG) | label 1
* CCGCTACCTTGGGTTCTAACCTGTTGCCT (site CCGCTACCTAG) | label 1
* CCTACATCTTGGGTTCTAACCTGTTGCAT (site CCTACATCTTA) | label 0
